- Test system: CP297
- PROCEDURE_SUMMARY: qHTS profiling for inhibitors of Plasmodium falciparum proliferation (AID 504749); also: nearly all actives have a fitted effect of over 60% in size
- CONDITION_SET: P. falciparum in erythrocytes, SYBR Green DNA, 72 h; series mostly up to 28.7 µM
Results filed as inconclusive are left out. Active and inactive are the calls of the source. Calls follow the shape of the dose curve; as a rule, active = well fitted inhibition curve with a large enough effect; inconclusive = small, poorly fitted or top-dose-only effect; inactive = flat fitted curve, though single readings scatter.
Give one outcome, nothing more. List: active, inactive

O=C(O)C1(C(=O)O)CCC1.[NH2-].[NH2-].[Pt+2]    inactive
COc1ccc(/C=N/NC(=O)c2ccncc2)cc1OC    inactive
CCOC(=O)c1ccc(N)cc1    inactive
OCCOCCN1CCN(C2=Nc3ccccc3Sc3ccccc32)CC1    inactive
CC(=O)Nc1ccc(S(=O)(=O)Nc2ccc([N+](=O)[O-])cc2)cc1    inactive

Ask: What classification did CN(C)CCN1C(=O)c2ccccc2N(C)c2ccccc21 end up with in this test?
Reply: active

Ask: # repeat for COc1cc(C(=S)N2CCOCC2)ccc1O
Reply: inactive

Ask: # repeat for O=C(c1ccc(F)cc1)C1CCN(CCn2c(=S)[nH]c3ccccc3c2=O)CC1
Reply: active
